# targetOrTestSystem: Serine/threonine-protein kinase 26 (Homo sapiens) (UniProt Q9P289)
# Sequence (Q9P289 2-416 limits assumed): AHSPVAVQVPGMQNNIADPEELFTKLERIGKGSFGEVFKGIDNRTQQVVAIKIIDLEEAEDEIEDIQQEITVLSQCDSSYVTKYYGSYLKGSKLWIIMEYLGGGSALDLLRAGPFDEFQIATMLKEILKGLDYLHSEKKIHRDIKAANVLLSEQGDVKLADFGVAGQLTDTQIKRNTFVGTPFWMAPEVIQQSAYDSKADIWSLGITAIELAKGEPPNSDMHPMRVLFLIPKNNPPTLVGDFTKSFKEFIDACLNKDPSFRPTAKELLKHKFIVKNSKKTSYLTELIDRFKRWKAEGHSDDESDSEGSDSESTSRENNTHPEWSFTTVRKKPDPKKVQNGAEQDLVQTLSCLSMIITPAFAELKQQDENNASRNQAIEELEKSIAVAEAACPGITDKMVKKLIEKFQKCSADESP
# experimentalContext: at 1 µM
The following compounds are listed with their measured inhibition values.
Note: a bare number is incomplete; add the unit.

Some compounds with recorded inhibition:
COc1cc(C)c(NC(=O)CN(C)C)cc1Nc1nc(Nc2cccc(F)c2C(N)=O)c2cc[nH]c2n1 | -2.75%
CCCN1CCC(Oc2cc(Nc3nc(Nc4cccc(F)c4C(N)=O)c4cc[nH]c4n3)c(OC)cc2Cl)CC1 | 2.1%
CCc1cccc(NC(=O)Nc2ccc(Oc3ccc4nc(NC(=O)OC)[nH]c4c3)cc2)c1 | 2.74%
CS(=O)(=O)CCN(CC#N)Cc1ccc(-c2ccc3ncnc(Nc4ccc(OCc5cccc(F)c5)c(Cl)c4)c3c2)o1 | 0.46%
CC1=C(C(=O)Nc2ccc3[nH]ncc3c2)C(c2ccc(F)cc2)NC(=O)N1 (stereo not given) | -0.49%
CCn1c(-c2nonc2N)nc2cncc(C(=O)N3CC[C@H](N)C3)c21 | 1.04%
COc1cccc(-n2ncc3c(N/N=C/c4cccc(F)c4)ncnc32)c1 | 2.84%
N#Cc1c(NC(=O)c2cccc3ccccc23)sc2c1CCCC2 | 1.23%
COc1ccc2cc(-c3c(-c4ccncc4)nc(-c4ccc([S+](C)[O-])cc4)n3C)ccc2c1 (stereo not given) | -1.05%
Cc1cc(O)cc(C)c1/C=C/c1cncc(-c2nn[nH]n2)c1 | 0.45%

## Task API: value(readout= inhibition, system= Serine/threonine-protein kinase 26 (Homo sapiens) (UniProt Q9P289), query= Cc1ccc(NC(=O)c2ccnc(N3CCCC3)c2)cc1-c1ccc(C(=O)NCC2CC2)cc1 )
## Result 6.65%

## Task API: value(readout= inhibition, system= Serine/threonine-protein kinase 26 (Homo sapiens) (UniProt Q9P289), query= CCn1c(-c2nonc2N)nc2c(N3CCCC3)nccc21 )
## Result 0.92%

## Task API: value(readout= inhibition, system= Serine/threonine-protein kinase 26 (Homo sapiens) (UniProt Q9P289), query= COc1cc2c(cc1Nc1nc(N3CCc4ccccc43)c3cc[nH]c3n1)N(C(=O)CN(C)C)CC2 )
## Result 4.16%

## Task API: value(readout= inhibition, system= Serine/threonine-protein kinase 26 (Homo sapiens) (UniProt Q9P289), query= CS(=O)(=O)CCNCc1ccc(-c2ccc3ncnc(Nc4ccc(OCc5ccccc5)c(Cl)c4)c3c2)o1 )
## Result 0.42%

## Task API: value(readout= inhibition, system= Serine/threonine-protein kinase 26 (Homo sapiens) (UniProt Q9P289), query= NS(=O)(=O)c1ccc(N/N=C2\C(=O)Nc3ccc(C(=O)NCCc4c[nH]cn4)cc32)cc1 );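 also: mean inhibition of MST4 kinase activity, reported from the GSK PKIS inhibitor-set screening panel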
## Result 6.15%
